Experiment: Intrinsic clearance in human
Type: ADME
Kindly return condition met if reported CLint scaled is no lower than 60 mL/min/kg; return condition not met if it is lower.

- Compound: "O=C(Nc1ccc2scnc2c1)[C@@H]1CCN(S(=O)(=O)c2ccc3c(c2)OCO3)C1"
  Cat: "condition not met"
- Compound: "O=C(Nc1ccc2scnc2c1)[C@@H]1CCN(S(=O)(=O)c2ccc3ncccc3c2)C1"
  Cat: "condition not met"
- Compound: "[2H]C1([2H])Oc2ccc(S(=O)(=O)N3CC[C@@H](C(=O)Nc4ccc5scnc5c4)C3)cc2C1([2H])[2H]"
  Cat: "condition not met"
- Compound: "O=C(Nc1ccc2scnc2c1)C12CC1CN(S(=O)(=O)c1ccc3c(c1)CCO3)C2 (racemic)"
  Cat: "condition met"
- Compound: "C[C@@H]1CN(S(=O)(=O)c2ccc3c(c2)CCO3)C[C@@H]1C(=O)Nc1ccc2scnc2c1"
  Cat: "condition met"
- Compound: "C[C@H]1CN(S(=O)(=O)c2ccc3c(c2)CCO3)C[C@@H]1C(=O)Nc1ccc2scnc2c1"
  Cat: "condition not met"
- Compound: "O=C(Nc1ccc2scnc2c1)[C@@H]1CCN(S(=O)(=O)c2ccc3ncsc3c2)C1"
  Cat: "condition not met"
- Compound: "O=C(Nc1ccc2scnc2c1)[C@@H]1CCN(S(=O)(=O)c2ccc3c(c2)CCO3)C1"
  Cat: "condition not met"
- Compound: "O=C(Nc1ccc2scnc2c1)[C@H]1CCN(S(=O)(=O)c2ccc3c(c2)CCO3)C1"
  Cat: "condition met"
- Compound: "O=C(Nc1ccc2scnc2c1)C1CCN(S(=O)(=O)c2ccc3c(c2)CCO3)C1 (stereo unspecified)"
  Cat: "condition met"
